- target of assay: T1, human PDGFRB extracellular domain (human, UniProt P09619 33-532)
- T1 construct: extracellular domain; also called hPDGFRB-ECD; human PDGFRB ectodomain
- T1 sequence (P09619 33-532): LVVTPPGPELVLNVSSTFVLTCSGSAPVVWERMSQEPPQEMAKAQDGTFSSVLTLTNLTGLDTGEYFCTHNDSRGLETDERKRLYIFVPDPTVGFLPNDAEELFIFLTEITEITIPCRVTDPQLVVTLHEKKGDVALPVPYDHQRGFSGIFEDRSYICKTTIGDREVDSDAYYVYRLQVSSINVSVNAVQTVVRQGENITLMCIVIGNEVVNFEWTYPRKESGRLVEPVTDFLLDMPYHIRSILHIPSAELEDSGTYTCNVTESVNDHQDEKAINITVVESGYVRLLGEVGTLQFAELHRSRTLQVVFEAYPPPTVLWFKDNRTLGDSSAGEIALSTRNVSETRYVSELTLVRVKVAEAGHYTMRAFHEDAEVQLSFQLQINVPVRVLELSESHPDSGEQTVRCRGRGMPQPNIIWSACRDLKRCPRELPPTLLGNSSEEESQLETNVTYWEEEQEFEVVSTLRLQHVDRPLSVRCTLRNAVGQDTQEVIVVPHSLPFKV
- method description: binding assay on immobilised human PDGFRB ectodomain, apparent affinity (Example 4)
For each record, write down the corresponding pKd.
Lab note: report pKd as minus log10 of the concentration in molar units, number only.

In: // Input: SP02P (VHH, Llama VHH; on phage in the phage ELISA) VHH: EVQLVESGGGLVQAGGSLRLSCAASESISSIEQMGWFRQAPGKQRALVAINTYGGRTVYTNSVEGRFTMSRDSAKNMVYLQMTSLEPEDTAVYYCYAQTTAWRGGVWGQGTQVTVSS . Output its pKd only.
Out: 8.21

In: // Input: SP01P (VHH, Llama VHH; on phage in the phage ELISA) VHH: EVQLVESGGGLAQAGGSLRLSCVASGNIDSANGMAWYRQAPGKQRELVAHITSGTSYYVASVEGRFTISRANAKDTWYLQMNSLKPEDTGVYYCFPIGLSAHWSQGTQVTVSS . Output its pKd only.
Out: 7.69

Values compiled from patent US20220143204A1.
